Exercise: for every item that follows, state its recorded TGI.
system: U251 CNS; assay: NCI tumour cell line growth inhibition, 48 h

Form field TGI, entry Oc1ccc(O)c(-c2cn3c(n2)SCC3)c1 : 33.6 µM

Per the records, this molecule ( O=C1/C(=C/c2ccccc2)CN(C(=O)C(Cl)Cl)C/C1=C\c1ccccc1 ) has TGI equal to 1.24 µM

The molecule CCNC(=O)c1cc(Cl)ccc1NC(=O)C12CC3CC(CC(C3)C1)C2 showed TGI equal to > 100 µM

Sure, the documented TGI for CCCCn1c(CSc2ccc(Cl)cc2)c(C(=O)OCC)c2cc(OC)c(Br)cc21 is > 100 µM

The recorded TGI for O=C1CSC(=S)N1c1ccco1 is > 100 µM

Input CCc1c2c(cc3c1CC1(C3)Cc3cc4c(c(C(=O)OC)c3C1)CCCC4)CCCC2 (stereo not drawn) . Output TGI: > 100 µM

// TGI value for O=C1C(=O)N(c2ccc(Cl)cc2)C(=O)C(=O)C1c1nc2ccccc2o1 : > 100 µM

TGI for COc1cc2c3cc1Oc1c(O)c(OC)cc4c1C(Cc1ccc(O)c(c1)Oc1ccc(cc1)CC3N(C)CC2)N(C)CC4 (stereo not drawn) is 27.3 µM

Form: molecule = COc1ccc(/C=C/C(=O)/C=C/c2ccc(OC)cc2OC)c(OC)c1 ; TGI = 23.4 µM

Looking up COc1cc(OC)cc(-c2ccc(-c3ccc(C(=N)N)cn3)o2)c1 , I found its TGI recorded as 3.02 µM

Just so you know, measured TGI for O=C(CN(C(=O)OC12CC3CC(CC(C3)C1)C2)C(=O)OC12CC3CC(CC(C3)C1)C2)Oc1ccc([N+](=O)[O-])cc1 came out at > 100 µM

Entry CCC(=O)N1C(=O)OCC1C(C)C (stereo not drawn) , TGI reported as > 100 µM

The measured TGI associated with Cc1c(C)c(C)c(Cn2[nH]c(=O)n(C)c2=O)c(C)c1C reads > 100 µM

The molecule CCOC(=O)CC(c1ccccc1)C(C)(C(=O)OCC)C(=O)OCC (stereo not drawn) showed TGI equal to > 100 µM

The molecule listed as Clc1cc2nn(C3CCCCO3)nc2cc1Cl (stereo not drawn) shows TGI equal to > 100 µM

molecule COC(=O)/C=C\C(C#N)(C#N)N=Cc1cccc(OC)c1 , TGI observed: 32.2 µM

TGI recorded for this molecule, C[C@@]1(C(=O)O)CCC[C@]2(C)C1CC[C@@]13C[C@@](O)(CC[C@]12O)[C@@]1(CO1)C3 (stereo partly drawn) , is > 100 µM

Form: molecule = N#CC(/C(CCC(=O)Nc1ccc(Cl)cc1)=N/NC(=O)c1cc2ccccc2cc1O)c1ccccc1 (stereo not drawn) ; TGI = > 100 µM

Reported TGI for Cc1n[nH]c(=S)n(C)c1=S was > 100 µM

Lookup result for CSC(=NC#N)S/C=C/C(=O)c1ccccc1 ; measured TGI: > 100 µM

Sure, the documented TGI for COC(=O)C1CCN(C(=O)OC(C)(C)C)CC1 is > 100 µM

Lab book: TGI of O=C1C(=C(C(F)(F)Cl)C(F)(F)Cl)C2CCC1C2 (stereo not drawn) noted as > 10 µM

response.value for S=C(NCCc1ccccn1)N/N=C/c1ccccn1 (field: TGI) = > 100 µM
